Tested on: Wolbachia pipientis
Experiment: Anti-Wolbachia Cell-Based Screen
Assay type: functional
Parameters: scale not given: in the data most compounds retested in dose-response had high values
Conditions: 5 µM
In all, about 48,000 compounds went through this assay and about 13,000 (27%) showed an effect of 50% or more. Some of the results follow.
For each of the compounds below, state its Percent Effect.
Give bare numbers, in %.

# example entries with known answers
1. CN(CCC(C)(C)O)C(=O)C1CCC(=O)N(Cc2ccc(Cl)cc2)C1 (configuration not stated): -7.945
2. CC(C)Nc1nc(N2CCCC2)nc2c1CN(S(C)(=O)=O)CC2: 105.6
3. CCN1CCN(C(=O)C(C)N2CCc3cncnc3C2)CC1 (configuration not stated): 4.565
4. O=C1CN(C(=O)C2CCCOC2)CCN1Cc1ccc(Cl)cc1 (configuration not stated): -1.465
5. COc1ccc(CN2CC(O)CN(C(=O)C3CCC3)CC2=O)cc1 (configuration not stated): 125.6
6. O=C1CN(C(=O)C2CCOCC2)CCN1Cc1ccc(Cl)cc1: -5.322
7. COc1ccc(CN2CCO[C@H]3CN(C4CCC4)CC[C@H]3C2=O)cc1.O=C(O)C(F)(F)F: -4.57
8. O=C1CN(C(=O)C2CCCCC2)CC(O)CN1Cc1ccc(Cl)cc1 (configuration not stated): 110.4
9. CC(C)Nc1nc(N2CCCC2)nc2c1CCN(S(C)(=O)=O)CC2.O=C(O)C(F)(F)F.O=C(O)C(F)(F)F: 110.6
10. CCCS(=O)(=O)N1CCc2nc(N3CCOCC3)nc(N(C)C)c2C1: 5.75

Each of the following entries comes with a recorded value; kindly state Percent Effect for each.
1. CC(C)Nc1nc(N2CCCC2)nc2c1CN(c1ncc(F)cn1)CC2
2. CN1CC[C@]2(CN(Cc3cccs3)C[C@H]2c2ccccc2)C1=O
3. Cc1nn(C)c(N2CCOCC2)c1CNC1CCN(C(C)(C)C)CC1
4. Cc1ccc(CN2CCOC3(CCN(CC4CCOC4)CC3)C2)cc1.O=C(O)C(F)(F)F.O=C(O)C(F)(F)F (configuration not stated)
5. CCS(=O)(=O)N1CCc2nc(N3CCOCC3)nc(N(C)C)c2CC1
6. CSCCCNC(=O)c1coc(Cn2cnc3ccccc32)n1
7. Cc1ccc(CN2CCOC3(CCN(C(=O)N4CCCC4)CC3)C2)cc1.O=C(O)C(F)(F)F

1: 118.9; 2: -2.755; 3: -15.17; 4: 104.9; 5: -7.887; 6: 7.588; 7: -8.825

Provide reported Percent Effect for each item, in the same order as listed.
1. CC(C)CCN1CCc2nc(N3CCOCC3)nc(NC(C)C)c2C1
2. CCC(C)N(Cc1ccncc1)Cc1ccccc1Cn1cccn1 (configuration not stated)
3. Cc1ccc(CNC2CCc3[nH]c(=O)ccc3C2)cc1C.O=C(O)C(F)(F)F (configuration not stated)
4. O=C(C1CCOCC1)N1CCN2C(=O)N(Cc3ccc(F)cc3)C[C@H]2C1
5. Cc1ccc(CN2CC(O)CN(C(=O)C3CC3)CC2=O)cc1 (configuration not stated)

0.8088
4.156
104.8
-6.376
98.84

----------
Task for the reader: assign each of the following compounds its reported Percent Effect.
Tested on: Wolbachia pipientis
Experiment: Anti-Wolbachia Cell-Based Screen
Format: functional
Set-up: scale not given: in the data most compounds retested in dose-response had high values
Settings: 5 µM
Among all 48,000 compounds or so, about 13,000 (27%) showed an effect of 50% or more. The list shows a part of the results.
Numbers only, in %.

Some solved cases for reference:
1. O=C(Nc1ccccc1)C1CN(C(=O)c2cccs2)CC12CCOCC2 (centres undefined): -0.3117
2. Cc1noc(CN2CCCC(Cn3nc(C)nc3C)C2)n1 (centres undefined): 104.9
3. Cc1ncncc1-c1ccnc(N(C)C)n1: 99.71
4. Cc1nc(C)n(CC2CCCN(Cc3nc(C4CC4)no3)C2)n1 (centres undefined): 2.839
5. Cc1ccc(CN(C)c2nccc(-c3cn(C)nc3C)n2)o1: -5.707
6. CCCS(=O)(=O)c1ccc(N2CCN(Cc3ccccc3)CC2)nn1: 5.683
7. Cc1ccc(NS(=O)(=O)CC2=NC(=O)n3cccc3C2=O)cc1: 7.318
8. Cc1ccc(-c2nnc(NC(=O)c3ccn(C)c(=O)c3)[nH]2)s1: 1.444
9. Cc1nc(C)n(CC2CCCN(Cc3noc(C)n3)C2)n1 (centres undefined): 96.94
10. CCc1nc(CN(C(C)=O)C2CCN(Cc3cnc(C)cn3)C2)no1 (centres undefined): -6.946

# batch: return Percent Effect for each of the 7 compounds below
1. CCOCc1nc2c(c(NC(CC)c3ccnn3C)n1)CCNCC2 (centres undefined)
2. Cc1csc(CN(C)C(=O)C2CCC(=O)N(CCN(C)C)C2)n1 (centres undefined)
3. COc1ncccc1C(=O)N1CCCC1c1c(C)nn(C)c1Cl (centres undefined)
4. CCc1nc(C)c([C@H]2CN(C)C[C@@H]2C(=O)Nc2ccc(OC)cc2)[nH]1
5. CN(Cc1noc(C2CC2)n1)C1CCN(CCc2cccs2)C1 (centres undefined)
6. COc1ccc(NC(=O)C2OC(c3cccs3)=NN2C(C)=O)cc1 (centres undefined)
7. COCCCN(Cc1cnc(C2CCCCC2)nc1)C1CCN(C)CC1

-1.595
2.129
89.91
7.798
86.2
116.4
105.2

Respectfully, I request Percent Effect for each entry included below.
1. CCc1ccc(NC(=O)C2OC(c3cccs3)=NN2C(C)=O)cc1 (centres undefined)
2. Cn1ccnc1COc1ccc(NC(=O)C2CCCO2)cc1 (centres undefined)
3. CC(=O)N1N=C(c2cccs2)OC1C(=O)Nc1ccccc1 (centres undefined)
4. CCn1cnnc1CNC(=O)N1CCC(C(=O)NC)CC1
5. CCc1nc(CN(C(C)=O)C2CCN(CCc3cnn(C)c3)C2)no1 (centres undefined)

[3.495, -13.75, 103.8, -5.598, -3.276]

Take each entry in turn and give its Percent Effect.
1. Cc1cc(CN(C2CC2)C(C)C(C)C)no1 (centres undefined)
2. c1ccc2c(c1)CC(N1CCCC(NCc3ccc4nonc4c3)C1)C2 (centres undefined)

1: 5.492; 2: 0.08784

----------
System: Wolbachia pipientis
Assay: Anti-Wolbachia Cell-Based Screen
Type: functional
Design: scale not given: in the data most compounds retested in dose-response had high values
Settings: 5 µM
Out of some 48,000 compounds screened, about 13,000 (27%) showed an effect of 50% or more. The list shows a part of the results.
Task for the reader: assign each of the following compounds its reported Percent Effect.
Answers are plain numbers, in %.

1. N#Cc1cc(F)ccc1Cn1cncn1: 9.511
2. COc1cc2c(nn1)CCN(CC(O)COc1ccc(C#N)cc1)C2 (stereo not given): -7.756
3. CC(=O)Nc1ncc(S(=O)(=O)N2CCN(C3CCCCC3)CC2)s1: -4.636

Batch lookup, Percent Effect per entry.
1. CN1C(=O)CCC12CCN(c1ccc(C#N)cn1)CC2.O=C(O)C(F)(F)F
2. Cc1nc(CN(C)S(=O)(=O)c2ccccc2C(F)(F)F)no1

114
2.399

# map each compound to its Percent Effect
1. N#Cc1ccc(N2CCC3(CCC(=O)N3CCN3CCCC3)CC2)nc1.O=C(O)C(F)(F)F.O=C(O)C(F)(F)F
2. CSc1ccc(CN(C(=O)c2cc(=O)[nH]c(=O)[nH]2)C2CC2)cc1
3. COc1cc(N2CCCC3(CCN(c4cccnc4)C3=O)C2)ncn1.O=C(O)C(F)(F)F (stereo not given)

1. 111.3
2. 1.499
3. -87.96

I need Percent Effect for every entry listed below, if you could help.
1. O=C1CCC2(CCCN(c3ncc(F)cn3)CC2)N1CC1CC1 (stereo not given)
2. CC(C)C1CN(c2ncc(F)cn2)CCC(=O)N1Cc1ccc(F)cc1 (stereo not given)

1: -5.991; 2: 23.16

----------
System: Wolbachia pipientis
Experiment: Anti-Wolbachia Cell-Based Screen
Format: functional
Design: scale not given: in the data most compounds retested in dose-response had high values
Conditions: 5 µM
The campaign covered roughly 48,000 compounds. About 13,000 (27%) showed an effect of 50% or more. This is one part of the list.
value-type: Percent Effect (%)
Give bare numbers, in %.

Below are worked cases with known answers.
1. O=C([C@@H]1Cc2[nH]cnc2CN1CC1CC1)N1CCCC1: 2.393
2. CCNC(=O)C1(Cc2ccc(-c3ccccc3)cc2)CCCNC1 (centres undefined): 160.5
3. Cc1nn(C)c(C)c1C1COCCN1C(=O)CC(C)(C)C (centres undefined): -9.995
4. Cc1nn(C)c(C)c1C1COCCN1C(=O)c1cc(F)ccc1F (centres undefined): 96.87

Please give Percent Effect, item by item, for the list that follows.
1. c1nc(NCC2(N3CCOCC3)CCSC2)c2sccc2n1 (centres undefined)
2. NC(=O)C1(Cc2ccc(-c3ccccc3)cc2)CCNC1 (centres undefined)
3. CCN(CC)C1(Cc2cc(-c3ccccn3)on2)COC1
4. CN(C)CC1(O)CCCN(C(=O)c2ccccc2-n2cccn2)C1 (centres undefined)
5. CCCn1cnc2c1CN(S(=O)(=O)c1ccc(F)cc1)[C@H](C(=O)OC)C2

1: -18.02; 2: 156.4; 3: -7.749; 4: -10.31; 5: -2.883

Would you mind giving Percent Effect for every molecule in the list below?
1. CC(C)=CCCC(C)CN1CCC(n2cc(C(=O)NCCO)nn2)CC1 (centres undefined)
2. O=S(=O)(C1CC1)N1CCc2c(CN3CCOCC3)cncc2C1
3. CCOCc1cncc2c1CCN(S(=O)(=O)c1cccc(C)c1)C2
4. Cc1ccc(CC(=O)N(C)CC2(O)CCN(c3ccccn3)C2)s1 (centres undefined)

[-5.673, 82.99, 11.95, -7.019]

Origin of values: ChEMBL document CHEMBL3988442
